Measured kinase still bound, per cent of control, listed per entry.
# system: MARK1 (human) (UniProt Q9P0L2)
# Sequence (Q9P0L2 whole entry, looked up): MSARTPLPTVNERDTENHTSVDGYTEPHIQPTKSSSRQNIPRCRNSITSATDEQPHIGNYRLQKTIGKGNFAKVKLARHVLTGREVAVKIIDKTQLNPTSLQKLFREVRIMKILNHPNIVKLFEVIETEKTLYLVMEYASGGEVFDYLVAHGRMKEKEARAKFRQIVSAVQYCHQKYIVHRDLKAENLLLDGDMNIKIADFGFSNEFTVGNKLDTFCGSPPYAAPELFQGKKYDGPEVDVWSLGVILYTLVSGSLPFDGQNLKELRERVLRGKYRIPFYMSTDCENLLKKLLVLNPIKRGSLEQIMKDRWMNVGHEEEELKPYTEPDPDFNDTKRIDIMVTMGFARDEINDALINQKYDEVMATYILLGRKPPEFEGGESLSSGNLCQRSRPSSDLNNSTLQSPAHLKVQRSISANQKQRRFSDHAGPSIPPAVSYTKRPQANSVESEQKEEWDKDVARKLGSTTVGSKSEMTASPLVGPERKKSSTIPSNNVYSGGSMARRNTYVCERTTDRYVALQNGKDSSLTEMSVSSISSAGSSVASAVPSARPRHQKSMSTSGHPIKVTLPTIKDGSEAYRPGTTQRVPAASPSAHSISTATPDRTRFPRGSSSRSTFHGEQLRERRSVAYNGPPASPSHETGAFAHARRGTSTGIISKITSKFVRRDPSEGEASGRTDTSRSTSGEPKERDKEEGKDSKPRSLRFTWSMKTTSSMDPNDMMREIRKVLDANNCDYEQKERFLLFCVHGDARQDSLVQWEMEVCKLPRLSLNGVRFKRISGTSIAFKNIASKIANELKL
# test: KINOMEscan competition binding
# condition label: compound 10.0 µM
Write down the numeric answer in % and omit the unit.

Previously resolved entries follow.
CCN(CC)CCCCNc1ncc2cc(-c3cc(OC)cc(OC)c3)c(NC(=O)NC(C)(C)C)nc2n1 | 100
CN(C)C/C=C/C(=O)Nc1ccc(C(=O)Nc2cccc(Nc3nccc(-c4cccnc4)n3)c2)cc1 | 70
COc1cc(C(=O)N2CCC(N3CCN(C)CC3)CC2)ccc1Nc1ncc2c(n1)N(C)c1ccccc1C(=O)N2C | 87
COc1cc2ncn(-c3cc(OCc4ccccc4C(F)(F)F)c(C(N)=O)s3)c2cc1OC | 82
O=C1NC(=O)/C(=C/c2ccc3nccc(-c4ccncc4)c3c2)S1 | 74

kinase still bound, per cent of control in this record for "O=C(Nc1cccc(Nc2ncc(Br)c(NCCc3cnc[nH]3)n2)c1)N1CCCC1" : 0.45

kinase still bound, per cent of control in this record for "COc1cc2ncnc(-n3nc(-c4ccccn4)nc3N)c2cc1OC" : 86

kinase still bound, per cent of control in this record for "CNC(=O)c1cc(Oc2ccc(NC(=O)Nc3ccc(Cl)c(C(F)(F)F)c3)cc2)ccn1" : 100

kinase still bound, per cent of control in this record for "Cc1n[nH]c2ccc(-c3cncc(OC[C@@H](N)Cc4c[nH]c5ccccc45)c3)cc12" : 100

kinase still bound, per cent of control in this record for "C=CC(=O)Nc1ccc(CN(C(=O)Nc2c(Cl)c(OC)cc(OC)c2Cl)c2cc(Nc3ccc(N4CCN(C)CC4)cc3)ncn2)cc1" : 100

kinase still bound, per cent of control in this record for "NC(=O)Nc1cc(-c2cccc(F)c2)sc1C(=O)N[C@@H]1CCCNC1" : 2.6

kinase still bound, per cent of control in this record for "COc1cc(N2CCN(C)CC2)ccc1Nc1ncc2c(n1)N(C)c1ccccc1C(=O)N2C" : 100

kinase still bound, per cent of control in this record for "O=c1cc(N2CCOCC2)oc2c(-c3cccc4c3sc3ccccc34)cccc12" : 100

kinase still bound, per cent of control in this record for "CCN(CC)CCCCNc1ncc2c(n1)N(C)C(=O)N(c1c(Cl)c(OC)cc(OC)c1Cl)C2" : 100

kinase still bound, per cent of control in this record for "CS(=O)(=O)N1CCN(Cc2cc3nc(-c4cccc5[nH]ncc45)nc(N4CCOCC4)c3s2)CC1" : 100

kinase still bound, per cent of control in this record for "C=CC(=O)Nc1cc(-n2c(=O)ccc3cnc4ccc(-c5cn[nH]c5)cc4c32)ccc1C" : 78

kinase still bound, per cent of control in this record for "CCN1CCN(C(=O)Cc2ccc(Nc3ncc(F)c(Nc4ccc(C(=O)Nc5ccccc5Cl)cc4)n3)cc2)CC1" : 51

kinase still bound, per cent of control in this record for "C[C@@H](Oc1cc(-c2cnn(C3CCNCC3)c2)cnc1N)c1c(Cl)ccc(F)c1Cl" : 36

kinase still bound, per cent of control in this record for "CNC(=O)c1ccc(Nc2cc(Nc3ccccc3S(=O)(=O)C(C)C)c3cc[nH]c3n2)nc1" : 26

kinase still bound, per cent of control in this record for "N#CCNC(=O)c1ccc(-c2ccnc(Nc3ccc(N4CCOCC4)cc3)n2)cc1" : 66

kinase still bound, per cent of control in this record for "COCC(=O)NC/C=C/c1ccc2ncnc(Nc3ccc(Oc4ccc(C)nc4)c(C)c3)c2c1" : 100

kinase still bound, per cent of control in this record for "COc1ccc(N(C(=O)Oc2c(C)cccc2C)c2ccnc(Nc3ccc(N4CCN(C)CC4)cc3)n2)c(OC)c1" : 24

* * *

Measured kinase still bound, per cent of control, listed per entry.
# system: NEK9 (human) (UniProt Q8TD19)
# Sequence (Q8TD19 whole entry, looked up): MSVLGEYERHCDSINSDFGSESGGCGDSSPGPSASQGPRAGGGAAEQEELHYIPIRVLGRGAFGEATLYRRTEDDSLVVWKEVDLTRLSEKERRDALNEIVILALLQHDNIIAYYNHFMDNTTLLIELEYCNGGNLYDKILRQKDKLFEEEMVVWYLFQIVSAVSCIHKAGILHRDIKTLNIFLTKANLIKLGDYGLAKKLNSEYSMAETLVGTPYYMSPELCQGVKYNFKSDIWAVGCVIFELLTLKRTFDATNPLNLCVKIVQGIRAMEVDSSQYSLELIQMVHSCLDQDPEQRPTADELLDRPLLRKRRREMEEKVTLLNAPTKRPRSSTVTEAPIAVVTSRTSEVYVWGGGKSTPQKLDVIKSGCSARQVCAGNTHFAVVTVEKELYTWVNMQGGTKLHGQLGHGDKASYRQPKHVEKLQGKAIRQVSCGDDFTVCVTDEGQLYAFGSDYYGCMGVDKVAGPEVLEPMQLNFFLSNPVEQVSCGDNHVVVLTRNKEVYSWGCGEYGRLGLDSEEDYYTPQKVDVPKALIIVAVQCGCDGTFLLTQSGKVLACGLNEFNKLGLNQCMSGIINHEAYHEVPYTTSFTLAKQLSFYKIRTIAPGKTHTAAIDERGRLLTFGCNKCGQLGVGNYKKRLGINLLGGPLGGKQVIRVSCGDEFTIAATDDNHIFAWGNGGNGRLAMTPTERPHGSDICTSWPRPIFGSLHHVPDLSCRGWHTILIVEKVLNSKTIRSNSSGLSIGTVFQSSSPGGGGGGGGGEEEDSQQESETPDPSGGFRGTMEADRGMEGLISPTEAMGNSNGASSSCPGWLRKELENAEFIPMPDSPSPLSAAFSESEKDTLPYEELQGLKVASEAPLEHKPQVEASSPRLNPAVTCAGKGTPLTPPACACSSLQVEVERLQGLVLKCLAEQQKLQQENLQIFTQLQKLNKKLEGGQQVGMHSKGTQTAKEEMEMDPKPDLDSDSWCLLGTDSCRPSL
# test: KINOMEscan competition binding
# condition label: compound 10.0 µM
Write down the numeric answer in % and omit the unit.

Previously resolved entries follow.
C=CC(=O)Nc1ccc(CN(C(=O)Nc2c(Cl)c(OC)cc(OC)c2Cl)c2cc(Nc3ccc(N4CCN(C)CC4)cc3)ncn2)cc1 | 100
O=c1cc(N2CCOCC2)oc2c(-c3cccc4c3sc3ccccc34)cccc12 | 93
C[C@@H](Oc1cc(-c2cnn(C3CCNCC3)c2)cnc1N)c1c(Cl)ccc(F)c1Cl | 6.2
O=C(Nc1cccc(Nc2ncc(Br)c(NCCc3cnc[nH]3)n2)c1)N1CCCC1 | 4.6
CCN1CCN(C(=O)Cc2ccc(Nc3ncc(F)c(Nc4ccc(C(=O)Nc5ccccc5Cl)cc4)n3)cc2)CC1 | 18
CCN(CC)CCCCNc1ncc2c(n1)N(C)C(=O)N(c1c(Cl)c(OC)cc(OC)c1Cl)C2 | 100
C=CC(=O)Nc1cc(-n2c(=O)ccc3cnc4ccc(-c5cn[nH]c5)cc4c32)ccc1C | 100
CNC(=O)c1cc(Oc2ccc(NC(=O)Nc3ccc(Cl)c(C(F)(F)F)c3)cc2)ccn1 | 79

Moving on to the next molecule.
The measured kinase still bound, per cent of control that "Cc1n[nH]c2ccc(-c3cncc(OC[C@@H](N)Cc4c[nH]c5ccccc45)c3)cc12" showed for NEK9 (human) (UniProt Q8TD19) is 100

* * *

Measured kinase still bound, per cent of control, listed per entry.
# system: UniProt Q99640
# Sequence (Q99640 whole entry, looked up): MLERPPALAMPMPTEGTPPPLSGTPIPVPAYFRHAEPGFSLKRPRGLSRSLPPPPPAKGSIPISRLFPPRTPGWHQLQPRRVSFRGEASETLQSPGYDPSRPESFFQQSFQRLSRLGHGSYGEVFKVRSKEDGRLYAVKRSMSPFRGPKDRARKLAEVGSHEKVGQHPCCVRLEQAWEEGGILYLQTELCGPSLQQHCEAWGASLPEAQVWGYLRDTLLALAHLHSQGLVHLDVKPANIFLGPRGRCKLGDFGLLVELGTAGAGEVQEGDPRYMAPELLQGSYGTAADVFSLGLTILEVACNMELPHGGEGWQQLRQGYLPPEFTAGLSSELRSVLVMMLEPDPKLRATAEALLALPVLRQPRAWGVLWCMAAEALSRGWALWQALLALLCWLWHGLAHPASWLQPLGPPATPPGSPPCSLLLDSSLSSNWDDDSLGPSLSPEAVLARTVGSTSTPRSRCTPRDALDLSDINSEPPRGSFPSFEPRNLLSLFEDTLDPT
# test: KINOMEscan competition binding
# condition label: compound 10.0 µM
Write down the numeric answer in % and omit the unit.

Previously resolved entries follow.
C=CC(=O)Nc1ccc(CN(C(=O)Nc2c(Cl)c(OC)cc(OC)c2Cl)c2cc(Nc3ccc(N4CCN(C)CC4)cc3)ncn2)cc1 | 100
COc1cc(C(=O)N2CCC(N3CCN(C)CC3)CC2)ccc1Nc1ncc2c(n1)N(C)c1ccccc1C(=O)N2C | 80
O=C1NC(=O)/C(=C/c2ccc3nccc(-c4ccncc4)c3c2)S1 | 78

kinase still bound, per cent of control in this record for "COc1ccc(N(C(=O)Oc2c(C)cccc2C)c2ccnc(Nc3ccc(N4CCN(C)CC4)cc3)n2)c(OC)c1" : 100

kinase still bound, per cent of control in this record for "O=C(Nc1cccc(Nc2ncc(Br)c(NCCc3cnc[nH]3)n2)c1)N1CCCC1" : 100

kinase still bound, per cent of control in this record for "C=CC(=O)Nc1cc(-n2c(=O)ccc3cnc4ccc(-c5cn[nH]c5)cc4c32)ccc1C" : 81

kinase still bound, per cent of control in this record for "CCN1CCN(C(=O)Cc2ccc(Nc3ncc(F)c(Nc4ccc(C(=O)Nc5ccccc5Cl)cc4)n3)cc2)CC1" : 100

kinase still bound, per cent of control in this record for "COc1cc(N2CCN(C)CC2)ccc1Nc1ncc2c(n1)N(C)c1ccccc1C(=O)N2C" : 100

kinase still bound, per cent of control in this record for "CNC(=O)c1ccc(Nc2cc(Nc3ccccc3S(=O)(=O)C(C)C)c3cc[nH]c3n2)nc1" : 100

* * *

# system: ITK (human) (UniProt Q08881)
# Sequence (Q08881 whole entry, looked up): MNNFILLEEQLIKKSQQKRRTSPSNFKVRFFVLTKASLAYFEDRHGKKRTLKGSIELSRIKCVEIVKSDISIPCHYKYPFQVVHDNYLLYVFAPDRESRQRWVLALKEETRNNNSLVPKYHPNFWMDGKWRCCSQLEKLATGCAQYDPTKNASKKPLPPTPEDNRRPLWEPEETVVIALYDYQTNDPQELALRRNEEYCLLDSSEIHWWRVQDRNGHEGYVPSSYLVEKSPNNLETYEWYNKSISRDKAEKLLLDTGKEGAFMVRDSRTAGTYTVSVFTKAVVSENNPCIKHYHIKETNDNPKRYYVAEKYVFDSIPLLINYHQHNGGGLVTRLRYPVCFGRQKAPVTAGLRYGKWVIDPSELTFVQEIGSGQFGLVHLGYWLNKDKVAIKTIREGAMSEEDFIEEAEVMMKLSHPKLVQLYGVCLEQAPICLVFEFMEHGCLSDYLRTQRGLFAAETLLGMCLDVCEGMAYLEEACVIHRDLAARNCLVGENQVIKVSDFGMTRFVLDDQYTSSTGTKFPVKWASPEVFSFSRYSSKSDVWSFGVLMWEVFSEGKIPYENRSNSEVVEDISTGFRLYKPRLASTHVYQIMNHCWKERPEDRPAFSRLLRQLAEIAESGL
# test: KINOMEscan competition binding
# condition label: compound 10.0 µM
outcome measure: kinase still bound, per cent of control (%)
Write down the numeric answer in % and omit the unit.

O=C(Nc1cccc(Nc2ncc(Br)c(NCCc3cnc[nH]3)n2)c1)N1CCCC1 | 4.5
COCC(=O)NC/C=C/c1ccc2ncnc(Nc3ccc(Oc4ccc(C)nc4)c(C)c3)c2c1 | 92

kinase still bound, per cent of control in this record for "NC(=O)Nc1cc(-c2cccc(F)c2)sc1C(=O)N[C@@H]1CCCNC1" : 0.55

kinase still bound, per cent of control in this record for "O=C1NC(=O)/C(=C/c2ccc3nccc(-c4ccncc4)c3c2)S1" : 81

kinase still bound, per cent of control in this record for "COc1cc(C(=O)N2CCC(N3CCN(C)CC3)CC2)ccc1Nc1ncc2c(n1)N(C)c1ccccc1C(=O)N2C" : 82

kinase still bound, per cent of control in this record for "C[C@@H](Oc1cc(-c2cnn(C3CCNCC3)c2)cnc1N)c1c(Cl)ccc(F)c1Cl" : 33

kinase still bound, per cent of control in this record for "COc1cc(N2CCN(C)CC2)ccc1Nc1ncc2c(n1)N(C)c1ccccc1C(=O)N2C" : 100

kinase still bound, per cent of control in this record for "CCN(CC)CCCCNc1ncc2cc(-c3cc(OC)cc(OC)c3)c(NC(=O)NC(C)(C)C)nc2n1" : 100

kinase still bound, per cent of control in this record for "CNC(=O)c1cc(Oc2ccc(NC(=O)Nc3ccc(Cl)c(C(F)(F)F)c3)cc2)ccn1" : 100

* * *

Measured kinase still bound, per cent of control, listed per entry.
# system: CAMK2A (human) (UniProt Q9UQM7)
# Sequence (Q9UQM7 whole entry, looked up): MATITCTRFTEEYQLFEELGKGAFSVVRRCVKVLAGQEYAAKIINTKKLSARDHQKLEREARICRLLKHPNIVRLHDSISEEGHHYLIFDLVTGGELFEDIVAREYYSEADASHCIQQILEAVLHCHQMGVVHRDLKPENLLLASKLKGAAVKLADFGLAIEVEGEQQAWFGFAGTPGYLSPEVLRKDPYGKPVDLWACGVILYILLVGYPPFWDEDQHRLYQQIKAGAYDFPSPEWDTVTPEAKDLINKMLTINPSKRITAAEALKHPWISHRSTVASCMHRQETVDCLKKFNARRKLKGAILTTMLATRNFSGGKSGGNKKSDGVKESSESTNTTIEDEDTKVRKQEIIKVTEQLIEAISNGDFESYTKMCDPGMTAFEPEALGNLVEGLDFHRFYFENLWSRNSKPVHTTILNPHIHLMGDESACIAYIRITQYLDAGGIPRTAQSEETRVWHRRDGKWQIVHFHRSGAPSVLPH
# test: KINOMEscan competition binding
# condition label: compound 10.0 µM
Write down the numeric answer in % and omit the unit.

COCC(=O)NC/C=C/c1ccc2ncnc(Nc3ccc(Oc4ccc(C)nc4)c(C)c3)c2c1 | 93
NC(=O)Nc1cc(-c2cccc(F)c2)sc1C(=O)N[C@@H]1CCCNC1 | 3.6
COc1cc2ncn(-c3cc(OCc4ccccc4C(F)(F)F)c(C(N)=O)s3)c2cc1OC | 76

Moving on to the next compound.
kinase still bound, per cent of control in this record for "CNC(=O)c1ccc(Nc2cc(Nc3ccccc3S(=O)(=O)C(C)C)c3cc[nH]c3n2)nc1" : 100
